- EXPERIMENTAL_TARGET: Nucleolin (NCL) (UniProt P19338 1-710)
- Sequence (P19338 whole entry): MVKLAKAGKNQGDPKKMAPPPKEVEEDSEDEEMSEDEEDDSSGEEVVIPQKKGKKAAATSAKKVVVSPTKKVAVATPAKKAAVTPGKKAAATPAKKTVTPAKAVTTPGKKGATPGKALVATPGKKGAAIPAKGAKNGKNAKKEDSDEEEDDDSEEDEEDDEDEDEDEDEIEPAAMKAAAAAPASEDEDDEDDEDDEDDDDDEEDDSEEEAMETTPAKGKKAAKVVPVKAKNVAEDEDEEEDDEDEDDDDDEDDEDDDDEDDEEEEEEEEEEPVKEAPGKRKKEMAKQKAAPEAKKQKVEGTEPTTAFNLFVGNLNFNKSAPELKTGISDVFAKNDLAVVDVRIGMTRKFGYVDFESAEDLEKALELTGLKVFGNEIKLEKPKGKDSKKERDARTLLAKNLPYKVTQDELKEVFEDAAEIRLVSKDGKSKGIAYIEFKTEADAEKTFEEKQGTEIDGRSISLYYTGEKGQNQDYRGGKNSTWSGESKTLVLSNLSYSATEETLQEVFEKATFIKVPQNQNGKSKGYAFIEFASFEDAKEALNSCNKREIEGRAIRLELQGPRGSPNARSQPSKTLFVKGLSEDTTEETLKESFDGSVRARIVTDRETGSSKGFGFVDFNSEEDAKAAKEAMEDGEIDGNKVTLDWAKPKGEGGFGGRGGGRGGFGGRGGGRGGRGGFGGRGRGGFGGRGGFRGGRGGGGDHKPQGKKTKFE
- PROTOCOL_DESCRIPTION: EMSA; printed as KD >= 1500 nM; still interacts with very low affinity; 20 mM Tris-HCl pH 7.5, 50 mM KCl, 10% glycerol, 0.3 mg/mL BSA, 0.02% Nonidet P-40, 15 uL, 2 pmol 32P-RNA, 20 °C 30 min (competition: further 30 min); native 7%
- REPORTED_CONDITIONS: protein: recombinant; tags: His; label: 32P; predicted fold, CGA in bubble
METRIC: Kd

Data request, read-out Kd, for AGGCGGAAAUGGUUCGACUAAAUGUGUGGGAA (structured_RNA) [D2M] > 1500 nM
